Target: T1, Ara h 2 (peanut, UniProt Q6PSU2 22-172)
T1 construct: also called full length Ara h 2
T1 sequence (looked up): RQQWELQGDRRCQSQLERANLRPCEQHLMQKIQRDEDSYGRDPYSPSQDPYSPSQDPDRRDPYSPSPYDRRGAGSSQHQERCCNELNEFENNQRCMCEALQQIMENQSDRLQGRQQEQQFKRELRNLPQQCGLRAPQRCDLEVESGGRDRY
Assay: competition ELISA on coated Ara h 2; competitor: Patient F serum IgE
readout-name: % inhibition of IgE binding (%)
# value in %; strip the unit string

Exercise: Field request: % inhibition of IgE binding | item: h12G10 (antibody, human IgG1, V domains shown, Recombinant human IgG; also called hMAb 12G10) VH: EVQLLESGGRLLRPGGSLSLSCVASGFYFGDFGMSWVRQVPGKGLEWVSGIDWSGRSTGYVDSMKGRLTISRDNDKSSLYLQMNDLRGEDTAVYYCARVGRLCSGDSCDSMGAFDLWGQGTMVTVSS VL: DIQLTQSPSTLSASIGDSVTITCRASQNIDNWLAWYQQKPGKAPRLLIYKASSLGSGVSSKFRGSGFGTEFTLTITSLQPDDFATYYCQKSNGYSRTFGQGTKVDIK
Key: 45.3

Exercise: Field request: % inhibition of IgE binding | item: h4B2 (antibody, V domains shown, Recombinant human IgG; also called hMAb 4B2) VH: QVQLQEAGPRLVKPSQTLSVTCTVSGASITIGGYYWSWIRQHPGKGLEWMGYIYSNGRTYYNPSLKSRIAMSIDTSKNQFSLKLTSVTAADTAIYFCAREAWETPLWGQGTLITVSS VL: DIQMTQSPSSLSASVGDRVTITCQANQDIVNSLNWFQHKPGTAPKVLIYDASKLETGVPSRFSGSGSGTHFTFTISGLQPEDFATYFCQQYENLPHTFGQGTKLEIR
Key: 30.8

Exercise: Field request: % inhibition of IgE binding | item: h32B10 (antibody, V domains shown, Recombinant human IgG; also called hMAb 32B10) VH: QVQLVQSGAEVKKPGASVKVSCRASGYIFRNFDINWVRQATGQGLEWMGWMSPKSGDTGYAQKFQGRVTMTRDTSINTAYMELSSLTSEDSAVYYCARGVDGTNWGQGTRVTVSS VL: DIVMTQSPDSLGVSLGERATISCKSSQSILDNSNNKNFIAWFQQKPGQPPKLLIYWASARESGVPDRFSGSGSGTEFTLTINSLQAEDVAVYYCYQYYSTPHTFGQGTKLDLR
Key: 23.1

Exercise: Field request: % inhibition of IgE binding | item: h37D5 (antibody, V domains shown, Recombinant human IgG; also called hMAb 37D5) VH: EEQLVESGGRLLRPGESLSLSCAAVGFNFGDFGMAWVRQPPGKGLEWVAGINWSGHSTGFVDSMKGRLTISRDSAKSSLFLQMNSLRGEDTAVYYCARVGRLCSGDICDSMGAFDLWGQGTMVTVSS VL: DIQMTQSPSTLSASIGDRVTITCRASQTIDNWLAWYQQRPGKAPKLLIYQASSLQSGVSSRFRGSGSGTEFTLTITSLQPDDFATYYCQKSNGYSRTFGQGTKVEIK
Key: 36.2
